biological target: T1, iCAL356 (N-terminal cysteine on peptide); assay: fluorescence polarization competition
T1 chain: WQTSII
In this section we review reported Ki values for a set of binders.
result-type: Ki (µM)

1. NHERF1 PDZ1 (protein) LPRLCCLEKGPNGYGFHLHGEKGKLGQYIRLVEPGSPAEKAGLLAGDRLVEVNGENVEKETHQQVVSRIRAALNAVRLLVVDPETDE | 430
2. NHERF2 PDZ1 (protein) RPRLCRLVRGEQGYGFHLHGEKGRRGQFIRRVEPGSPAEAAALRAGDRLVEVNGVNVEGETHHQVVQRIKAVEGQTRLLVVDQETD | 496
3. NHERF2 PDZ2 (protein) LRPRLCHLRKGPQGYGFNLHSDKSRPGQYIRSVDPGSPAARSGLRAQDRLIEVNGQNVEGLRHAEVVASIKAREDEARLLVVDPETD | 246
